# assayComment: Cytotoxicity against mouse BV-2 cells assessed as cell viability at 5 uM incubated for 24 hrs by MTT assay relative to control
# Format: toxicity, cell-based
# conditionSet: read-out: Activity
For each record, write down the corresponding viability at 24 h, 5 µM.
Numbers only, in %.

Cc1c(C(=O)C(=O)N2CCSCC2)nn(-c2ccc(Cl)cc2Cl)c1-c1ccc(Cl)cc1	99.6

Please examine the following record next.
// Cc1c(C(=O)NN2CCCCC2)nn(-c2ccc(Cl)cc2Cl)c1-c1ccc(Cl)cc1 [RIMONABANT] : viability at 24 h, 5 µM value = 99.3

###

# assayComment: Inhibition of LPS-induced NO production in mouse BV-2 cells at 10 uM incubated for 24 hrs by Griess reagent based method relative to control
# Type: functional
I'd appreciate it if you could supply inhibition at 10 µM values for the items below.
Numbers only, in %.

Observe how each entry below is paired with its result.
Cc1c(C(=O)C(=O)N2CCSCC2)nn(-c2ccc(Cl)cc2Cl)c1-c1ccc(Cl)cc1	58.3
Cc1c(C(=O)C(=O)N2CCN(C)CC2)nn(-c2ccc(Cl)cc2Cl)c1-c1ccc(Cl)cc1	48

Count: 3. Required value per item: inhibition at 10 µM.
1. Cc1c(C(=O)C(=O)N2CCCCC2)nn(-c2ccc(Cl)cc2Cl)c1-c1ccc(Cl)cc1
2. Cc1c(C(=O)NN2CCCCC2)nn(-c2ccc(Cl)cc2Cl)c1-c1ccc(Cl)cc1
3. Cc1c(C(=O)C(=O)NCCO)nn(-c2ccc(Cl)cc2Cl)c1-c1ccc(Cl)cc1

1. 50.1
2. 43.9
3. 73.4

inhibition at 10 µM for Cc1c(C(=O)C(=O)N2CCOCC2)nn(-c2ccc(Cl)cc2Cl)c1-c1ccc(Cl)cc1 is 49.7

###

# assayComment: Cytotoxicity against mouse BV-2 cells assessed as cell viability at 10 uM incubated for 24 hrs by MTT assay relative to control
# Assay type: toxicity, cell-based
# conditionSet: read-out: Activity
Kindly supply the reported viability at 24 h, 10 µM values for the records listed here.
One number for each entry, in %.

Cc1c(C(=O)NN2CCCCC2)nn(-c2ccc(Cl)cc2Cl)c1-c1ccc(Cl)cc1 [RIMONABANT]	91.2

Data point: Cc1c(C(=O)C(=O)N2CCCCC2)nn(-c2ccc(Cl)cc2Cl)c1-c1ccc(Cl)cc1 ; viability at 24 h, 10 µM = 80

###

Kindly state inhibition at 5 µM for each of the entries shown.
# assayComment: Inhibition of LPS-induced NO production in mouse BV-2 cells at 5 uM incubated for 24 hrs by Griess reagent based method relative to control
# Assay type: functional
Numbers only, in %.

Cc1c(C(=O)C(=O)N2CCN(C)CC2)nn(-c2ccc(Cl)cc2Cl)c1-c1ccc(Cl)cc1	38.1

# batch size: 2; output inhibition at 5 µM per entry
1. CCNC(=O)C(=O)c1nn(-c2ccc(Cl)cc2Cl)c(-c2ccc(Cl)cc2)c1C
2. Cc1c(C(=O)C(=O)N2CCSCC2)nn(-c2ccc(Cl)cc2Cl)c1-c1ccc(Cl)cc1

63.7
13.5

###

# assayComment: Cytotoxicity against mouse BV-2 cells assessed as cell viability at 5 uM incubated for 24 hrs by MTT assay relative to control
# Type: toxicity, cell-based
# conditionSet: read-out: Activity
Kindly supply the reported viability at 24 h, 5 µM values for the records listed here.

CCNC(=O)C(=O)c1nn(-c2ccc(Cl)cc2Cl)c(-c2ccc(Cl)cc2)c1C	86.4%
CCCCNC(=O)C(=O)c1nn(-c2ccc(Cl)cc2Cl)c(-c2ccc(Cl)cc2)c1C	< 80%
CCCCCCCNC(=O)C(=O)c1nn(-c2ccc(Cl)cc2Cl)c(-c2ccc(Cl)cc2)c1C	< 80%
Cc1c(C(=O)C(=O)NC2CCC(O)CC2)nn(-c2ccc(Cl)cc2Cl)c1-c1ccc(Cl)cc1 (configuration not stated)	< 80%
Cc1c(C(=O)C(=O)NC2CCCCC2)nn(-c2ccc(Cl)cc2Cl)c1-c1ccc(Cl)cc1	96.8%

Dear colleague, could you please provide viability at 24 h, 5 µM for the compounds listed below?
1. Cc1c(C(=O)C(=O)NCCO)nn(-c2ccc(Cl)cc2Cl)c1-c1ccc(Cl)cc1
2. Cc1c(C(=O)C(=O)NN2CCCCC2)nn(-c2ccc(Cl)cc2Cl)c1-c1ccc(Cl)cc1
3. CCCCCNC(=O)C(=O)c1nn(-c2ccc(Cl)cc2Cl)c(-c2ccc(Cl)cc2)c1C
4. CCCCCCCCNC(=O)C(=O)c1nn(-c2ccc(Cl)cc2Cl)c(-c2ccc(Cl)cc2)c1C

1. 94.2%
2. < 80%
3. < 80%
4. < 80%

###

# assayComment: Cytotoxicity against mouse BV-2 cells assessed as cell viability at 10 uM incubated for 24 hrs by MTT assay relative to control
# Assay type: toxicity, cell-based
# conditionSet: read-out: Activity
measuredEndpoint: viability at 24 h, 10 µM

Solved cases below.
CCNC(=O)C(=O)c1nn(-c2ccc(Cl)cc2Cl)c(-c2ccc(Cl)cc2)c1C	< 80%
Cc1c(C(=O)C(=O)NC2CCCCC2)nn(-c2ccc(Cl)cc2Cl)c1-c1ccc(Cl)cc1	< 80%
Cc1c(C(=O)C(=O)N2CCSCC2)nn(-c2ccc(Cl)cc2Cl)c1-c1ccc(Cl)cc1	96.5%
Cc1c(C(=O)C(=O)N2CCOCC2)nn(-c2ccc(Cl)cc2Cl)c1-c1ccc(Cl)cc1	98.7%

Consider the additional compound presented here.
# viability at 24 h, 10 µM of Cc1c(C(=O)C(=O)NCCO)nn(-c2ccc(Cl)cc2Cl)c1-c1ccc(Cl)cc1 = 93.6%

###

Would you kindly list viability at 24 h, 5 µM for each of these compounds?
# assayComment: Cytotoxicity against mouse BV-2 cells assessed as cell viability at 5 uM incubated for 24 hrs by MTT assay relative to control
# Format: toxicity, cell-based
# conditionSet: read-out: Activity

Some entries whose results are on file:
Cc1c(C(=O)C(=O)NCCCO)nn(-c2ccc(Cl)cc2Cl)c1-c1ccc(Cl)cc1	< 80%
Cc1c(C(=O)C(=O)NC2CCCCCC2)nn(-c2ccc(Cl)cc2Cl)c1-c1ccc(Cl)cc1	< 80%

Now take the following compound into account.
// recorded viability at 24 h, 5 µM for Cc1c(C(=O)C(=O)N2CCNCC2)nn(-c2ccc(Cl)cc2Cl)c1-c1ccc(Cl)cc1 : < 80%

###

# assayComment: Cytotoxicity against mouse BV-2 cells assessed as cell viability at 5 uM incubated for 24 hrs by MTT assay relative to control
# Assay type: toxicity, cell-based
# conditionSet: read-out: Activity
Task for the reader: assign each of the following compounds its reported viability at 24 h, 5 µM.

Worked cases, answers included:
Cc1c(C(=O)C(=O)N2CCN(C)CC2)nn(-c2ccc(Cl)cc2Cl)c1-c1ccc(Cl)cc1	95.2%
Cc1c(C(=O)C(=O)NCC(C)C)nn(-c2ccc(Cl)cc2Cl)c1-c1ccc(Cl)cc1	< 80%
Cc1c(C(=O)C(=O)N2CCCC2)nn(-c2ccc(Cl)cc2Cl)c1-c1ccc(Cl)cc1	< 80%
Cc1c(C(=O)C(=O)NC(C)C)nn(-c2ccc(Cl)cc2Cl)c1-c1ccc(Cl)cc1	< 80%
Cc1c(C(=O)C(=O)N2CCCCC2)nn(-c2ccc(Cl)cc2Cl)c1-c1ccc(Cl)cc1	98.2%

For each of the compounds below, note its viability at 24 h, 5 µM.
1. Cc1c(C(=O)C(=O)N2CCOCC2)nn(-c2ccc(Cl)cc2Cl)c1-c1ccc(Cl)cc1
2. Cc1c(C(=O)C(=O)NC2CCCC2)nn(-c2ccc(Cl)cc2Cl)c1-c1ccc(Cl)cc1

98%
< 80%

Reported viability at 24 h, 5 µM of Cc1c(C(=O)C(=O)N2CCC(O)CC2)nn(-c2ccc(Cl)cc2Cl)c1-c1ccc(Cl)cc1 : < 80%
